Provide the reported TGI of each item.
test system: SF-268 CNS; assay: NCI tumour cell line growth inhibition, 48 h

Give the value of TGI reported for the following: `N#Cc1ncc(N2C(=O)C3(CCC3)N(c3ccc(OC4CCNCC4)nc3)C2=S)cc1C(F)(F)F`
43.2 µM

Give the value of TGI reported for the following: `O[C@H](CN1CC1)[C@@H](O)CN1CC1`
30.8 µM

Give the value of TGI reported for the following: CCC1CCC2c3c([nH]c4ccccc34)C3C(=O)N(c4ccc(OC)cc4)C(=O)C3C2C1 (centres undefined)
> 100 µM

Give the value of TGI reported for the following: `c1ccc(-c2[nH]c(-c3ccccc3)c(-c3cnccn3)c2-c2cnccn2)cc1`
> 100 µM

Give the value of TGI reported for the following: CC(=O)O[C@H]1C(=O)[C@@]2(C)C(C(OC(=O)c3ccccc3)[C@]3(O)CC(OC(=O)C(O)C(NC(=O)c4ccccc4)c4ccc(C)cc4)C(C)=C1C3(C)C)[C@]1(OC(C)=O)CO[C@@H]1C[C@@H]2O (some centres undefined)
> 25 µM

Give the value of TGI reported for the following: `O=c1cccccc1NCCNc1cccccc1=O`
> 100 µM

Give the value of TGI reported for the following: COc1cc(CC2CC(c3ccc4c(c3)OCO4)OC2=O)cc(OC)c1OC (centres undefined)
> 100 µM

Give the value of TGI reported for the following: `O=C1C(=Cc2ccccc2[N+](=O)[O-])N=C(c2ccccc2)N1n1c(-c2ccccc2)nc2ccccc2c1=O`
> 100 µM

Give the value of TGI reported for the following: `CC(=O)Nc1ccc(/C=C(\NC(=O)c2ccccc2)C(=O)NNS(=O)(=O)c2ccc(C)cc2)cc1`
> 100 µM
